Tested on: healthy participants
Run Description: Phase 1 Part B multiple ascending dose (MAD): blood pressure
Format: in vivo, human
Study Conditions: MAD 30 mg QD, D 14 312 h
Measure: Mean DBP (mmHg)
Provide the reading as a plain figure in mmHg.

Output measured Mean DBP for this item: CCCN(C)C(=O)OCc1c(-c2ccc(O[C@H]3CCC[C@H](C(=O)O)C3)c(C)n2)nnn1C [Compound A] 63.3

###

Test system: healthy participants
Run Description: Phase 1 Part B multiple ascending dose (MAD): blood pressure
Format: in vivo, human
Study Conditions: MAD 60 mg BID, D 15 336 h
Measure: Mean DBP (mmHg)
Provide the reading as a plain figure in mmHg.

Answer with Mean DBP of CCCN(C)C(=O)OCc1c(-c2ccc(O[C@H]3CCC[C@H](C(=O)O)C3)c(C)n2)nnn1C measured for healthy participants. 64.5

###

Test system: healthy participants
Run Description: Phase 1 Part B multiple ascending dose (MAD): blood pressure
Assay type: in vivo, human
Study Conditions: MAD 10 mg QD, D 15 336 h
Measure: Mean DBP (mmHg)
Provide the reading as a plain figure in mmHg.

Output measured Mean DBP for this item: CCCN(C)C(=O)OCc1c(-c2ccc(O[C@H]3CCC[C@H](C(=O)O)C3)c(C)n2)nnn1C [Compound A] 66.8

###

Tested on: healthy participants
Run Description: Phase 1 Part B multiple ascending dose (MAD): blood pressure
Assay type: in vivo, human
Study Conditions: MAD 10 mg QD, D 2 24 h
Measure: Mean DBP (mmHg)
Provide the reading as a plain figure in mmHg.

Output measured Mean DBP for this item: CCCN(C)C(=O)OCc1c(-c2ccc(O[C@H]3CCC[C@H](C(=O)O)C3)c(C)n2)nnn1C 65.3

###

Tested on: healthy participants
Run Description: Phase 1 Part A single ascending dose (SAD) and FE/pH cohort: safety, blood pressure
Type: in vivo, human
Study Conditions: SAD 30 mg, D 1 8 h
Measure: Mean DBP

Output measured Mean DBP for this item: CCCN(C)C(=O)OCc1c(-c2ccc(O[C@H]3CCC[C@H](C(=O)O)C3)c(C)n2)nnn1C 65.2 mmHg

###

System: healthy participants
Run Description: Phase 1 Part B multiple ascending dose (MAD): blood pressure
Type: in vivo, human
Study Conditions: MAD 30 mg BID, D 2 24 h
Measure: Mean DBP (mmHg)
Provide the reading as a plain figure in mmHg.

Output measured Mean DBP for this item: CCCN(C)C(=O)OCc1c(-c2ccc(O[C@H]3CCC[C@H](C(=O)O)C3)c(C)n2)nnn1C [Compound A] 66.7

###

System: healthy participants
Run Description: Phase 1 Part B multiple ascending dose (MAD): blood pressure
Type: in vivo, human
Study Conditions: MAD 30 mg BID, D 14 314 h
Measure: Mean DBP (mmHg)
Provide the reading as a plain figure in mmHg.

Output measured Mean DBP for this item: CCCN(C)C(=O)OCc1c(-c2ccc(O[C@H]3CCC[C@H](C(=O)O)C3)c(C)n2)nnn1C 63.8

###

System: healthy participants
Run Description: Phase 1 Part B multiple ascending dose (MAD): blood pressure
Type: in vivo, human
Study Conditions: MAD 125 mg BID, D 14 312 h
Measure: Mean DBP (mmHg)
Provide the reading as a plain figure in mmHg.

Output measured Mean DBP for this item: CCCN(C)C(=O)OCc1c(-c2ccc(O[C@H]3CCC[C@H](C(=O)O)C3)c(C)n2)nnn1C 62
